- testTarget: human recombinant TAK1-TAB1 Kinase (TAK1 (1-303) and TAB1 (437-end)) (Homo sapiens (Human))
- Sequence (O43318 other isoform, or with tags, fused parts or gaps): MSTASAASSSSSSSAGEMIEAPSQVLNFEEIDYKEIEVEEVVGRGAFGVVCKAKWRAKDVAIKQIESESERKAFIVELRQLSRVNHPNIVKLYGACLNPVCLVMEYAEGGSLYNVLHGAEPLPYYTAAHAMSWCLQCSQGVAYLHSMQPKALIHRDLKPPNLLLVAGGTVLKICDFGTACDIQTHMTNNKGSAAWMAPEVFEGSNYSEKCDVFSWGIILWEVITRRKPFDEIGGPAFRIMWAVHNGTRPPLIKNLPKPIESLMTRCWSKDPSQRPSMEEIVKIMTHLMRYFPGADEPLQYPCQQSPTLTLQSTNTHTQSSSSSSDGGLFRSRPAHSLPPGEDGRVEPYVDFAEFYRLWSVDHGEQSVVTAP
- experiment: TAK1 biochemical ADP-Glo kinase assay
- testConditions: 10 μM ATP, MBP substrate; read-out: TAK1 Mean IC50 (nM) @ 10 μM ATP
- Experimental: The usefulness of the example compounds of the invention as TAK1 inhibitors was evaluated in a biochemical ADP-Glo kinase assay. Assay kits from Promega Corporation V4089 were used according to manufacturer's instructions and adapted as outlined here. […] One μl of compound solution in 5% DMSO was added to each well in a 384 well microtiter plate (OptiPlate #6007290). […] The plate was incubated for 30 minutes at room temperature in dark before reading luminescence on an Envision (PerkinElmer) reader. […]
Listed below: IC50 values for each entry.

compound	unitText	IC50
CN1C[C@H]2C[C@@H]1CN2C(=O)c1cccc2c1N1CCCCCNC(=O)c3cccc(c3)C(=O)/N=C/1N2	nM	2
CN1CCN(Cc2ccc3c(c2)N/C2=N\C(=O)c4cc(ccc4F)C(=O)NCCCCCN23)CC1	nM	6
C[C@@H]1CCCCNC(=O)c2cccc(c2)C(=O)Nc2nc3cccc(-c4ncn(C)n4)c3n21	nM	6
CC1CCCCNC(=O)c2cccc(c2)C(=O)Nc2nc3ccccc3n21 (centres unmarked)	nM	5
CC1CCCCNC(=O)c2cccc(c2)C(=O)/N=C2\Nc3cccc(C(=O)N4CC(F)(F)C4)c3N21 (centres unmarked)	nM	3
C[C@@H]1CCCCNC(=O)c2cccc(c2)C(=O)Nc2nc3cccc(-c4cn(C)nn4)c3n21	nM	3
CC1CCCCNC(=O)c2cccc(c2)C(=O)/N=C2\Nc3cccc(C(=O)N4CCC(F)(F)C4)c3N21 (centres unmarked)	nM	5
O=C1/N=C2\Nc3cccc(C(=O)N4CCN(C5COC5)CC4)c3N2CCCCCNC(=O)c2cccc1c2	nM	7

====

- testTarget: human recombinant TAK1-TAB1 Kinase (TAK1 (1-303) and TAB1 (437-end)) (Homo sapiens (Human))
- experiment: TAK1 biochemical ADP-Glo kinase assay
- testConditions: 10 μM ATP, MBP substrate; read-out: TAK1 Mean IC50 (nM) @ 10 μM ATP

compound	IC50
CN1CCN(C(=O)c2ccc3nc4n(c3c2)CCCCCNC(=O)c2cccc(c2)C(=O)N4)CC1	4 nM
CN1CCN(Cc2cc(C(=O)N(C)C)c3c(c2)nc2n3CCCCCNC(=O)c3cccc(c3)C(=O)N2)CC1	8 nM
O=C1NCCCCCn2c(nc3cc(F)ccc32)NC(=O)c2cccc1c2	4 nM
CC1CCCCNC(=O)c2cccc(c2)C(=O)Nc2nc3cccc(-c4ccc[n+]([O-])c4)c3n21 (stereo not drawn)	8 nM
COC(=O)CN(C)C(=O)c1cccc2c1N1/C(=N/C(=O)c3cccc(c3)C(=O)NCCCCC1C)N2 (stereo not drawn)	4 nM
CC1CCCCNC(=O)c2cccc(c2)C(=O)/N=C2\Nc3cccc(C(=O)N4CC5(CCO5)C4)c3N21 (single isomer, unassigned) [Example 79]	6 nM
CC1CCCCNC(=O)c2cccc(c2)C(=O)/N=C2\Nc3cccc(C4CCCNC4=O)c3N21 (single isomer, unassigned) [Example 59]	4 nM
CC1CCCCNC(=O)c2cccc(c2)C(=O)/N=C2\Nc3cccc(C(=O)N4CC5(CCO5)C4)c3N21 (single isomer, unassigned) [Example 80]	5 nM
C[C@H]1CCCCNC(=O)c2cccc(c2)C(=O)/N=C2\Nc3cc(CN4CCOCC4)cc(C(=O)N(C)C)c3N21	5 nM
